meta.source: paper PMC5540273

# Tested on: CAMK1B
# CONDITION: concentration: 1 μM, replicates: in singlicate; n = 1;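 note: KINOMEscan kinase panel screen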
MEASUREMENT_NAME: %Inh (%)
Number only, in %; omit the unit.

Observe how each entry below is paired with its result.
O=c1cc(N2CCOCC2)nc2n(Cc3ccc(F)c(Cl)c3)ccn12	32
COc1cc2ncn(-c3cc(OCCCc4ccccc4)c(C(N)=O)s3)c2cc1OC	0
Nc1nccc2scc(-c3ccc4c(c3)CCN4C(=O)Cc3ccccc3)c12	33

input: # get_value(readout='%Inh', item= CCn1c(-c2ccoc2)nc2cnccc21 )
output: 0

input: Given the entry CCc1ccc(-c2ccc3c(c2)-c2nn(C)cc2S(=O)(=O)N3C)cc1 , report its measured %Inh.
output: 0

input: Look up %Inh for this molecule: COC(=O)c1c(-c2ccccc2)c2cc(C)ccc2c(=O)n1Cc1ccccc1
output: 0

input: I have this molecule here, COc1ccc(-n2cnc3c(N)ncnc32)cc1 , and I need its recorded %Inh.
output: 25

input: Entry COc1ccc(Nc2nccc(N3CCC(NS(=O)(=O)c4ccc(NC(C)=O)cc4)C3)n2)cc1 (stereo not drawn) : reported %Inh = ?
output: 31

input: # lookup: %Inh of CN(C)c1cc(-c2ccc3c(N)n[nH]c3c2)nc(N)n1
output: 0

###

Reported %Inh by item:
# Tested on: RIPK1
# CONDITION: concentration: 1 μM, replicates: in singlicate; n = 1
Supply the numeric figure in %, leaving out any unit text.

Would you please look over these solved cases?
COC(=O)c1c(-c2ccccc2)c2cc(Br)ccc2c(=O)n1Cc1ccc(S(C)(=O)=O)cc1	0
Nc1n[nH]c2ncc(-c3ccccc3)cc12	0
Cc1nn2c(=O)cc(N3CCOCC3)nc2n1Cc1cccc(Cl)c1Cl	0

input: Reported %Inh, compound CCn1c(-c2nonc2N)nc2ccccc21 : ____
output: 0

input: Recorded %Inh of O=C(Nc1n[nH]c2nc(-c3ccccc3)c(Br)cc12)C1CC1 , please.
output: 48

input: For the compound COc1cc(Nc2nccc(N3CCC(NC(=O)C4COc5ccccc5O4)C3)n2)cc(OC)c1OC (stereo not drawn) , what %Inh is on record?
output: 7

input: Consider the compound COc1cccc(C2=C(Nc3cccc(C(=O)O)c3)C(=O)NC2=O)c1 and give its measured %Inh.
output: 0

input: Dear colleague, I am looking for the recorded %Inh of the following compound: CCC(=O)c1c(-c2ccccc2)c2cc(Cl)ccc2c(=O)n1Cc1cc(S(C)(=O)=O)n(CC(F)F)n1
output: 1

input: GET /values?readout=%Inh&item= COc1cc2ncn(-c3cc(OCc4ccc(S(C)(=O)=O)cc4)c(C(N)=O)s3)c2cc1OC
output: 18

###

# maps each entry to its %Inh
# System: TSSK3
# CONDITION: concentration: 1 μM, replicates: in singlicate; n = 1
Record the value in %, omitting the unit from your answer.

Here is how some molecules turned out for %Inh.
Cl.c1ccc(Cn2cnc3cc(Nc4ncnc5ccccc45)ccc32)cc1	10
COc1cccc(-n2cnc3c(N)ncnc32)c1	21
COc1cc(Nc2nccc(N3CCC(NC(=O)C4COc5ccccc5O4)C3)n2)cc(OC)c1OC (stereo not shown)	9
COC(=O)c1c(-c2ccccc2)c2cc(C)ccc2c(=O)n1Cc1ccccc1	0
O=C(NCCNc1ccnc(Nc2ccc(F)cc2)n1)Nc1ccc2c(c1)OCO2	24

input: Enter reported %Inh observed with TSSK3 for COc1ccc(-c2coc3ccc(-c4nnc(SCc5cccc(C#N)c5)o4)cc23)cc1
output: 0

input: For TSSK3, provide %Inh of Cc1cccc(-c2cc(-c3c[nH]nc3-c3ccccn3)ccn2)c1 please.
output: 0

input: Enter reported %Inh observed with TSSK3 for C[C@@H]1CC[C@H](C(=O)NC2CCCCC2)CN1c1cc(-c2ccc3c(N)n[nH]c3c2)nc(N)n1
output: 31

input: TSSK3 / %Inh / CCc1nc(-c2cccc(C)c2)c(-c2ccncc2)s1 : value?
output: 0

input: Missing value: %Inh, TSSK3, entry COc1ccc(-c2cc3c(C)nc(N)nc3n([C@H]3CC[C@H](OCCO)CC3)c2=O)cn1 . Fill in?
output: 0
